- TARGET OR TEST SYSTEM: T1, recombinant human HER2 extracellular domain protein (human, UniProt P04626 23-652)
- T1 construct: range 23-652; Range is printed for the immunogen/panning protein; also called ErbB2; recombinant HER2 protein
- MEASUREMENT DESCRIPTION: BLI, Protein A capture
Returns one of true or false; true when koff is >= 0.0008 s⁻¹.

[
  {
    "BINDER": "Hu2117HK-Mu24 (Fc fusion, scFv-hIgG1 Fc; not shown: human IgG1 Fc) scFv: EVQLVESGGGLVQPGGSLRLSCAASGFTYSSYGMSWVRQAPGKGLEWVASISGGGSYTKYPDSVKGRFTISRDNSKNTLYLQMNSLRAEDTAVYYCARDYAGFFDVWGQGTLVTVSSGGGGSGGGGSGGGGSDIQMTQSPSSLSASVGDRVTITCRSSQSLVHSNINTYLHWYQQKPGKAPKLLIYKVSNRFSGVPSRFSGSGSGTDFTLTISSLQPEDFATYFCSQSTHVPYTFGQGTKVEIK",
    "LABEL": "false"
  },
  {
    "BINDER": "Hu2117HK-Mu08 (Fc fusion, scFv-hIgG1 Fc; not shown: human IgG1 Fc) scFv: EVQLVESGGGLVQPGGSLRLSCAASGFTYSSYGMSWVRQAPGKGLEWVASISGGGSYTKYADSVKGRFTISRDNSKNTLYLQMNSLRAEDTAVYYCARDYAGFFDVWGQGTLVTVSSGGGGSGGGGSGGGGSDIQMTQSPSSLSASVGDRVTITCRSSQSLVHSNGNTYLHWYQQKPGKAPKLLIYKVSNRFSGVPSRFSGSGSGTDFTLTISSLQPEDFATYFCSQSTHVPYTFGQGTKVEIK",
    "LABEL": "false"
  },
  {
    "BINDER": "Hu2117HK-Mu50 (Fc fusion, scFv-hIgG1 Fc; not shown: human IgG1 Fc) scFv: EVQLVESGGGLVQPGGSLRLSCAASGFTYSSYGMSWVRQAPGKGLEWVASISGGGSYTKYPDSVKGRFTISRDNSKNTLYLQMNSLRAEDTAVYYCARDYVGFFDVWGQGTLVTVSSGGGGSGGGGSGGGGSDIQMTQSPSSLSASVGDRVTITCRSSQSLVHSNGNTYLHWYQQKPGKAPKLLIYKVSNRFSGVPSRFSGSGSGTDFTLTISSLQPEDFATYFCSQSTHVPYTFGQGTKVEIK",
    "LABEL": "true"
  },
  {
    "BINDER": "Hu2117HK (Fc fusion, Hu2117-H1 + Hu2117-K1; also called hu2117-H1K1; humanized single-chain antibody Hu2117HK; not shown: human IgG1 Fc) scFv: EVQLVESGGGLVQPGGSLRLSCAASGFTYSSYGMSWVRQAPGKGLEWVASISGGGSYTKYPDSVKGRFTISRDNSKNTLYLQMNSLRAEDTAVYYCARDYAGFFDVWGQGTLVTVSSGGGGSGGGGSGGGGSDIQMTQSPSSLSASVGDRVTITCRSSQSLVHSNGNTYLHWYQQKPGKAPKLLIYKVSNRFSGVPSRFSGSGSGTDFTLTISSLQPEDFATYFCSQSTHVPYTFGQGTKVEIK",
    "LABEL": "true"
  }
]
